Recorded measurements of pIC50, one per entry
- system: bovine cardiac myofibrils (full-length cardiac myosin ATPase in the native sarcomere) (Bos taurus (Bovine), UniProt Q9BE39)
- Sequence (Q9BE39 whole entry): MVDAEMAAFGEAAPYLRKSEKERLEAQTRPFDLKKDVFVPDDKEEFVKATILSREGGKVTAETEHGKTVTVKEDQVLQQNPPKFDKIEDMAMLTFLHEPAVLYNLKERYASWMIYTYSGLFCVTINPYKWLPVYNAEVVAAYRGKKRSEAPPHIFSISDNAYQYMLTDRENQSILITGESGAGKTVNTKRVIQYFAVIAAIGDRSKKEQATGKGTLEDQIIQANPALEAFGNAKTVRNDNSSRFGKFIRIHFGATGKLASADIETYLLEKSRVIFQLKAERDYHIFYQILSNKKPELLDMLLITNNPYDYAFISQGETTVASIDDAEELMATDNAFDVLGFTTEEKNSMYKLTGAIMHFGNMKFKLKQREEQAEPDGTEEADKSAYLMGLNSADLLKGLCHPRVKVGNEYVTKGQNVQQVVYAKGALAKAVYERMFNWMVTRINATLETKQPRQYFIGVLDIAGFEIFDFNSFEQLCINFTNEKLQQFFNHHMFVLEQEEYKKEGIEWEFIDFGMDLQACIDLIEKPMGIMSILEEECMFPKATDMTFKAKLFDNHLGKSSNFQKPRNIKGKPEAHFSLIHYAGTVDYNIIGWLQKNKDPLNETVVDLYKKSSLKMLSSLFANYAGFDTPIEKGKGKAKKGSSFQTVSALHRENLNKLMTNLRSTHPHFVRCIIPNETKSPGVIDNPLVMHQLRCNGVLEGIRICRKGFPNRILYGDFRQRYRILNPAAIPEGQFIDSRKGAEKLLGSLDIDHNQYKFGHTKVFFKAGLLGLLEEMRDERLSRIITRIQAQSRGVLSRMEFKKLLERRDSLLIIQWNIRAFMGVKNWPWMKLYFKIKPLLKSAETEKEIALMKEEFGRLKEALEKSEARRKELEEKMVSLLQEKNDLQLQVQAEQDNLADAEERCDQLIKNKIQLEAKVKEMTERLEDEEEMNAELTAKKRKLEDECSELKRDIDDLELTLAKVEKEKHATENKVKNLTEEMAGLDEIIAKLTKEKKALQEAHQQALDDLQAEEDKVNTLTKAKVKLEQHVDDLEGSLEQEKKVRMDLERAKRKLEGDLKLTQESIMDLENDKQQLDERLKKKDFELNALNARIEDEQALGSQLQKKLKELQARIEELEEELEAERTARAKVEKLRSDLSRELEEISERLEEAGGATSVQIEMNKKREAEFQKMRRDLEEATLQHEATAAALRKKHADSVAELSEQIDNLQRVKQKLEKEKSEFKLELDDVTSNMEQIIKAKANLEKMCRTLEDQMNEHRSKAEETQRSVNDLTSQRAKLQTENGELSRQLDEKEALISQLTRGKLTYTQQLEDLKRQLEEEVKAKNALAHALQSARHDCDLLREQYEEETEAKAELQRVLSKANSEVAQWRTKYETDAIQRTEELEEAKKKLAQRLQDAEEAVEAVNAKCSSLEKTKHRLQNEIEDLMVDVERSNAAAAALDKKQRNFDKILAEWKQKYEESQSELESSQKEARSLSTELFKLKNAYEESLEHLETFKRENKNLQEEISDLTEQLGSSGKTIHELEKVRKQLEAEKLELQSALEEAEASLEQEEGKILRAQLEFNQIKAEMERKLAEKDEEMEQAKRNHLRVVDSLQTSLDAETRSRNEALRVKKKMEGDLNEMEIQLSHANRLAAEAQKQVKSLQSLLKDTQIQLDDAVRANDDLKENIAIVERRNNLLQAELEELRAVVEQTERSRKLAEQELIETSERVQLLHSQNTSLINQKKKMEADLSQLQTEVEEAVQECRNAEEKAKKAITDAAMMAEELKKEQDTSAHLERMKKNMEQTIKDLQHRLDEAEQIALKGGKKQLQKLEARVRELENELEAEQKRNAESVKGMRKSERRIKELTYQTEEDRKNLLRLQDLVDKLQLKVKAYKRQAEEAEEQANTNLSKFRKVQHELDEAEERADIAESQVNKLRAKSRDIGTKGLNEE
- Sequence (P85100 whole entry partner): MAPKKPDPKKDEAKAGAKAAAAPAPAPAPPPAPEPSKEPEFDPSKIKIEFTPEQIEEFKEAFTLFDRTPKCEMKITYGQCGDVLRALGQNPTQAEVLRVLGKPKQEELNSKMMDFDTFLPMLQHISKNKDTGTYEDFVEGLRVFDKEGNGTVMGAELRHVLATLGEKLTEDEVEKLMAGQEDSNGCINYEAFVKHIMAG
- Sequence (Q3SZE5 whole entry partner): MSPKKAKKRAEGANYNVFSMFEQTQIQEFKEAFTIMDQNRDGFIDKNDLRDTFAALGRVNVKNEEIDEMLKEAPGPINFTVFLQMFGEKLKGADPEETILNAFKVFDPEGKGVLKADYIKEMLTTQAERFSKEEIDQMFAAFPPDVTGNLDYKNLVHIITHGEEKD
- protocol-details: Skinned bovine cardiac myofibril ATPase assay (PK/LDH-coupled)
- condition-label: Ca2+ activating to 75% of maximal rate, read-out: CDMF75 IC50
Note: pIC50 values are expressed as the negative base-10 logarithm of concentration in M.

Solved cases below.
compound | pIC50
CCc1nc(-c2ccc3c(c2)CC[C@H]3NC(=O)OCC(C)(C)OC)no1 | 5.02
Cc1nc(-c2ccc3c(c2)CCC3NC(=O)c2oc(C)nc2C)no1 (stereo not shown) | 5.06
CCc1nc(-c2ccc3c(c2)CC[C@H]3NC(=O)c2cnn(CC3(C)COC3)c2)no1 | 4.41

API: the following record is the query input.
If you can, please state the reported pIC50 value of CCc1nc(-c2ccc3c(c2)CCC[C@H]3NC(=O)c2cnn(C)c2)no1 .
5.01
